- system under test: EGFR in Baf3-L858R-T790M-C797S (Homo sapiens, UniProt P00533, C797S/L858R/T790M)
- Sequence (P00533 25-1210 T790M/C797S/L858R): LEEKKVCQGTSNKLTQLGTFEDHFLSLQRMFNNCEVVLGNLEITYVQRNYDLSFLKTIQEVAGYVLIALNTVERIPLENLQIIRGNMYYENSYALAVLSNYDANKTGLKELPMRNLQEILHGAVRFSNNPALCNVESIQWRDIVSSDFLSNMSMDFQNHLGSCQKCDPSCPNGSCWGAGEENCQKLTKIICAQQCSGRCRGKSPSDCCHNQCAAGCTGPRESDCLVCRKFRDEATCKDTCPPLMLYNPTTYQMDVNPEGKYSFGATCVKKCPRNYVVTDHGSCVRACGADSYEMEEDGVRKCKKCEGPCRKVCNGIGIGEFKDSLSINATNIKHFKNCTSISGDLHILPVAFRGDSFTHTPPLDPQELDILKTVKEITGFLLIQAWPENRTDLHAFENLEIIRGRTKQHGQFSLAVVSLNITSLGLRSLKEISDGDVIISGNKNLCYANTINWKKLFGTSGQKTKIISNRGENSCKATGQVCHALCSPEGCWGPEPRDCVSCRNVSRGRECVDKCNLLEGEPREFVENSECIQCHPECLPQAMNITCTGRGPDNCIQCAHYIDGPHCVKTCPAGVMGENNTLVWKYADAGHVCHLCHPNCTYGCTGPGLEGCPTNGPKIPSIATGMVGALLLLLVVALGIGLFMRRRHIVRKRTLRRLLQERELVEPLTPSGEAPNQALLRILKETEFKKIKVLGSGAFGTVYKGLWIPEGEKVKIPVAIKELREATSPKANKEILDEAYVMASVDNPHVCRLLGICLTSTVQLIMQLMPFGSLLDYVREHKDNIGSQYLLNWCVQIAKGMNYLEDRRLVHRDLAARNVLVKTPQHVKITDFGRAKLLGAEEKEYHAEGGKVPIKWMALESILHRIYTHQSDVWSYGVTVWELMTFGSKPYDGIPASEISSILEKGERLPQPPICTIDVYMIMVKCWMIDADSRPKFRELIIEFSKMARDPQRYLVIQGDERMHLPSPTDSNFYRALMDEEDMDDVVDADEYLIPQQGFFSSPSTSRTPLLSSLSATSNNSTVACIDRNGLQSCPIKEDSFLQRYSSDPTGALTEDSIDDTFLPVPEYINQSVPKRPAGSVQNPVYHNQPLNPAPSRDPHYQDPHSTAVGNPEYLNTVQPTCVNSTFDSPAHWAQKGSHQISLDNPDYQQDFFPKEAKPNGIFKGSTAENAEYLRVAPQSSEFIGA
- experiment: EGFR PROTAC HTRF experiment (total EGFR degradation)
- Type: cell-based
- test conditions: Baf3-LTC, incubated 16 hours, HTRF total EGFR; read-out: Baf3-LTC DC50
Consider the following molecules and their measured DC50 readings.

molecule	DC50
CCc1cc(Nc2ncc(Br)c(Nc3ccccc3C(=O)NC)n2)c(OC)cc1N1CCN(C(=O)CN2CCC(c3cc4c(cc3F)c(N3CCC(=O)NC3=O)nn4C)C(F)(F)C2)CC1 (centres unmarked) [TA-004]	100 to 1000 nM
CCc1cc(Nc2ncc(Br)c(Nc3ccccc3P3(=O)CCCC3)n2)c(OC)cc1N1CC2(CCN(C(=O)CN3CCC(c4cc5c(cc4F)c(N4CCC(=O)NC4=O)nn5C)C(F)(F)C3)CC2(F)F)C1 (centres unmarked) [TB-010]	< 10 nM
CCc1cc(Nc2ncc(Cl)c(Nc3ccccc3P(C)(C)=O)n2)c(OC)cc1N1CCN(C(=O)CN2CCC(c3cc4c(cc3F)c(N3CCC(=O)NC3=O)nn4C)CC2)CC1 [TC-213]	10 to 100 nM

**Query** Could you share which DC50 value was measured for CCc1cc(Nc2ncc(Cl)c(Nc3ccccc3N(C)S(C)(=O)=O)n2)c(OC)cc1N1CCN(C(=O)CN2CCC(c3cc4c(cc3F)c(N3CCC(=O)NC3=O)nn4C)C(F)(F)C2)CC1 (centres unmarked) [TA-013] ?
**Result** < 10 nM

**Query** Can you look up the measured DC50 of CCc1cc(Nc2ncc(Cl)c(Nc3ccccc3C(=O)NC)n2)c(OC)cc1N1CCN(CCN2CCC(c3cc4c(cc3F)c(N3CCC(=O)NC3=O)nn4C)CC2)CC1 [TD-001] for me?
**Result** 10 to 100 nM

**Query** # input molecule: CCc1cc(Nc2ncc(Cl)c(Nc3ccccc3P(C)(C)=O)n2)c(OC)cc1N1CC2(CCN(C(=O)CN3CCC(c4cc5c(cc4F)c(N4CCC(=O)NC4=O)nn5C)C(F)(F)C3)CC2)C1 (centres unmarked) [TA-023] ; wanted: its DC50
**Result** 10 to 100 nM

**Query** Record request: DC50 value, item COc1cc(N2CCC(CN3CCN(c4ccc5c(c4)C(=O)N(C4CCC(=O)NC4=O)C5=O)CC3)CC2)c(-c2cnn(C)c2)cc1Nc1ncc(Br)c(Nc2ccc(C3CC3)cc2P(C)(C)=O)n1 (centres unmarked) [DZL-1, reference compound]
**Result** 10 to 100 nM

**Query** Need DC50, item CCc1cc(Nc2ncc(Cl)c(Nc3ccccc3P3(=O)CCCC3)n2)c(OC)cc1N1CCN(C(=O)CN2CCC(c3cc4c(cc3F)c(N3CCC(=O)NC3=O)nn4C)C(F)(F)C2)CC1 (centres unmarked) [TA-045]
**Result** 10 to 100 nM

---

Entries and their IC50 values follow.
- Tested on: A549
- experiment: Cell anti-proliferation experiment (CTG)
- Type: cell-based
- test conditions: Homo sapiens, A549, 72 h, A549 (wild-type EGFR), class symbol

compound	IC50
CCc1cc(Nc2ncc(Br)c(Nc3ccccc3P3(=O)CCCC3)n2)c(OC)cc1N1CC2(CCN(C(=O)CN3CCC(c4cc5c(cc4F)c(N4CCC(=O)NC4=O)nn5C)C(F)(F)C3)CC2(F)F)C1 (stereo not drawn)	> 1000 nM
CCc1cc(Nc2ncc(Br)c(Nc3ccccc3P(C)(C)=O)n2)c(OC)cc1N1CCN(C(=O)CN2CCC(c3cc4c(cc3F)c(N3CCC(=O)NC3=O)nn4-c3ccccc3)C(F)(F)C2)CC1 (stereo not drawn)	> 1000 nM
CCc1cc(Nc2ncc(Cl)c(Nc3ccccc3N(C)S(C)(=O)=O)n2)c(OC)cc1N1CCN(C(=O)CN2CCC(c3cc4c(cc3F)c(N3CCC(=O)NC3=O)nn4C)C(F)(F)C2)CC1 (stereo not drawn)	> 1000 nM
CCc1cc(Nc2ncc(Cl)c(Nc3ccccc3P(C)(C)=O)n2)c(OC)cc1N1CC2(CCN(C(=O)CN3CCC(c4cc5c(cc4F)c(N4CCC(=O)NC4=O)nn5C)C(F)(F)C3)C2)C1 (stereo not drawn)	100 to 1000 nM
COc1cc(N2CCN(C(=O)CN3CCC(c4cc5c(cc4F)c(N4CCC(=O)NC4=O)nn5C)C(F)(F)C3)CC2)ccc1Nc1ncc(Cl)c(Nc2ccccc2P(C)(C)=O)n1 (stereo not drawn)	> 1000 nM

Attention now shifts to the item below.
**Query** Can you share its IC50? I mean this compound: CCc1cc(Nc2ncc(Br)c(Nc3ccccc3P(C)(C)=O)n2)c(OC)cc1N1CCN(C(=O)Cn2nc(C)c(-c3cc4c(cc3F)c(N3CCC(=O)NC3=O)nn4C)c2C)CC1
**Result** 100 to 1000 nM

---

- Test system: A549
- experiment: Cell anti-proliferation experiment (CTG)
- Format: cell-based
- test conditions: Homo sapiens; A549 (wild-type EGFR), 72 hours, class symbol
- Description: H1975 has an EGFR: T790M/L858R double mutation, PC-9 has an EGFR exon 19 deletion, and HCC827 has an exon 19 deletion mutation. […] • A) Weighed approximately 2 mg the compound and calculated the required volume of DMSO according to the formula: Compound mass (mg) * Compound purity (%) / Compound molecular weight * 1000. • B) Placed the inoculated cell culture plate into an incubator and incubated for about 24 hours. […]
readout: IC50

Consider the worked cases shown below.
compound	IC50
CCc1cc(Nc2ncc(Br)c(Nc3ccccc3P(C)(C)=O)n2)c(OC)cc1N1CCN(C(=O)CN2CCC(c3cc4c(cc3F)c(N3CCC(=O)NC3=O)nn4C)C(F)(F)C2)CC1 (centres unmarked)	> 1000 nM
CCc1cc(Nc2ncc(Cl)c(Nc3ccccc3C(=O)NC)n2)c(OC)cc1N1CCN(C(=O)CN2CCC(c3ccc4c(N5CCC(=O)NC5=O)nn(C)c4c3)C(F)(F)C2)CC1 (centres unmarked) [Comparative Example 1-1, reference compound]	10 to 100 nM
CCc1cc(Nc2ncc(Br)c(Nc3ccccc3P(C)(C)=O)n2)c(OC)cc1N1CC2(CCN(C(=O)CN3CCC(c4cc5c(cc4F)c(N4CCC(=O)NC4=O)nn5C)C(F)(F)C3)CC2)C1 (centres unmarked)	> 1000 nM
CCc1cc(Nc2ncc(Cl)c(Nc3ccc4nccnc4c3P(C)(C)=O)n2)c(OC)cc1N1CCN(C(=O)CN2CCC(c3cc4c(cc3F)c(N3CCC(=O)NC3=O)nn4C)C(F)(F)C2)CC1 (centres unmarked)	10 to 100 nM

Now for the compound whose IC50 we want.
**Query** State its IC50 on A549: CCc1cc(Nc2ncc(Cl)c(Nc3ccccc3C(=O)NC)n2)c(OC)cc1N1CCN(C(=O)CN2CCC(c3cc4c(cc3F)c(N3CCC(=O)NC3=O)nn4C)C(F)(F)C2)CC1 (centres unmarked)
**Result** > 1000 nM

---

# key: entry, value: AUC(0-inf)
- experiment: Pharmacokinetic test of CD-1 mice
- Type: in vivo
- Design: concentration or dose not given beside the values
- test conditions: mouse; male CD-1 mice, single oral gavage (PO), plasma
Numeric answer only, unit ng·h/mL assumed.

# example entries with known answers
compound	AUC(0-inf), ng·h/mL
CCc1cc(Nc2ncc(Br)c(Nc3ccccc3C(=O)NC)n2)c(OC)cc1N1CCN(C(=O)CN2CCC(c3cc4c(cc3F)c(N3CCC(=O)NC3=O)nn4C)C(F)(F)C2)CC1 (stereo not shown)	28800
CCc1cc(Nc2ncc(Cl)c(Nc3ccccc3P(C)(C)=O)n2)c(OC)cc1N1CCN(C(=O)CN2CCC(c3cc4c(cc3F)c(N3CCC(=O)NC3=O)nn4C)C(F)(F)C2)CC1 (stereo not shown)	36300
CCc1cc(Nc2ncc(Cl)c(Nc3ccccc3C(=O)NC)n2)c(OC)cc1N1CCN(C(=O)CN2CCC(c3cc4c(cc3F)c(N3CCC(=O)NC3=O)nn4C)C(F)(F)C2)CC1 (stereo not shown)	20700

**Query** Look up AUC(0-inf) for this compound: CCc1cc(Nc2ncc(Cl)c(Nc3ccccc3C(=O)NC)n2)c(OC)cc1N1CCN(C(=O)CN2CCC(c3ccc4c(N5CCC(=O)NC5=O)nn(C)c4c3)C(F)(F)C2)CC1 (stereo not shown) [Comparative Example 1-1, reference compound]
**Result** 14300

---

Item-by-item account of IC50
- Tested on: PC-9
- experiment: Cell anti-proliferation experiment (CTG)
- Format: cell-based
- test conditions: Homo sapiens, PC-9, 72 h, PC-9 (EGFR exon 19 deletion), number after the class symbol
Write the number in nM without appending the unit.

molecule	IC50 / nM
COc1cc(N2CCN(C(=O)CN3CCC(c4ccc5c(N6CCC(=O)NC6=O)nn(C)c5c4)CC3)CC2)ccc1Nc1ncc(Cl)c(Nc2ccccc2)n1 [DZL-2, reference compound]	612
CCc1cc(Nc2ncc(Cl)c(Nc3ccccc3P(C)(C)=O)n2)c(OC)cc1N1CCN(C(=O)CN2CCC(c3cc4c(cc3F)c(N3CCC(=O)NC3=O)nn4C)CC2)CC1	505

Now for a further molecule.
**Query** Requested field: IC50. Item: COc1cc(N2CCC(CN3CCN(c4ccc5c(c4)C(=O)N(C4CCC(=O)NC4=O)C5=O)CC3)CC2)c(-c2cnn(C)c2)cc1Nc1ncc(Br)c(Nc2ccc(C3CC3)cc2P(C)(C)=O)n1 (stereo not drawn) [DZL-1, reference compound]
**Result** 205

This collection of values is drawn from patent EP4813979A1.
